Measured GI50 by item
System: SW-620
Test: NCI tumour cell line growth inhibition, 48 h
Active and inactive are the calls of the source. Cut-off read from the data, not from the text of the source: active = GI50 up to about 1.1 µM and inactive = higher.

- compound: "NCCC1([N+](=O)[O-])C=CN=CC1 (centres undefined)"
  valueKind: "GI50"
  assayValue: "> 100 µM (inactive)"

Lab book: GI50 of COC(=O)C1=C(CCC[C@H](C)O[Si](C)(C)C(C)(C)C)NC(=O)N2[C@@H](CCO)CC[C@H]12 noted as 20.1 µM (inactive)

Lab book: GI50 of Cc1nc2nnc(CCCCCCCCc3nnc4nc(C)[nH]n34)n2[nH]1 noted as > 100 µM (inactive)

Lab book: GI50 of CC1CCC2(CC1)NN=c1s/c(=C\c3ccc(O)cc3)c(=O)n1N2 (centres undefined) noted as > 100 µM (inactive)

Lab book: GI50 of O=C1OC[C@@H]2[C@@H](O)CCCCCN12 noted as > 100 µM (inactive)

Lab book: GI50 of COC(=O)C1=NN2c3ccccc3CN([C@@H](C)c3ccccc3)C(=O)[C@H]2[C@@H]1C noted as 43.1 µM (inactive)

Lab book: GI50 of CO[C@@H]1C[C@H]2[C@@H]3CC[C@H]([C@H](C)CO)[C@@]3(C)CC[C@@H]2[C@@]2(C)CC[C@H]3C[C@]312 noted as 70.3 µM (inactive)

Lab book: GI50 of COc1ccc(S(=O)(=O)N/N=C/CN2C(=O)c3ccccc3C2=O)cc1OC noted as > 100 µM (inactive)

Lab book: GI50 of CN(O)C(=O)c1ccc(OCc2cccc(Cl)c2)cc1 noted as 32.8 µM (inactive)

Lab book: GI50 of C[C@@H](Br)[C@@H]1CC[C@H]2c3[nH]c4ccccc4c3CCN2C1 noted as 21.8 µM (inactive)

Lab book: GI50 of O=C(/C=C/c1csc(-c2ccccc2)n1)NCc1ccc(C(=O)NCc2ccccc2)cc1 noted as > 100 µM (inactive)

Lab book: GI50 of CC1OC(CC(=O)O)Cc2c(O)c3c(c(O)c21)C(=O)C=C(C1=CC(=O)c2c(O)c4c(c(O)c2C1=O)CC(CC(=O)O)OC4C)C3=O (centres undefined) noted as 7.4 µM (inactive)

Lab book: GI50 of O=c1nc2n(c3nsnc13)CCO2 noted as > 100 µM (inactive)

Lab book: GI50 of CC(=O)Oc1ccn2nc(C)c(Cc3c(C)nn4ccc(OC(C)=O)cc34)c2c1 noted as > 100 µM (inactive)

Lab book: GI50 of CCC(C)[C@@H](NC1=C(Cl)C(=O)c2c(O)ccc(O)c2C1=O)C(=O)OC (some centres undefined) noted as 4.46 µM (inactive)

###

Measured GI50 by item
Tested on: SNB-19
Experiment: NCI tumour cell line growth inhibition, 48 h
The source made the active and inactive calls. Cut-off read from the data, not from the text of the source: active = GI50 up to about 1.1 µM and inactive = higher.

// solved cases for GI50 follow
- compound: "O=C(C1OC1c1ccc([N+](=O)[O-])cc1)C12CC3CC(CC(C3)C1)C2 (stereo not drawn)"
  testedOn: "SNB-19"
  GI50: "17.5 µM (inactive)"
- compound: "CN(C)C(=O)OC(Cn1cncn1)c1ccc(Cl)cc1Cl (stereo not drawn)"
  testedOn: "SNB-19"
  GI50: "> 100 µM (inactive)"
- compound: "Cc1cc(C)nc(Nc2nc3cc([N+](=O)[O-])ccc3[nH]2)n1"
  testedOn: "SNB-19"
  GI50: "> 100 µM (inactive)"
- compound: "C#Cc1ccccc1C(=O)OC"
  testedOn: "SNB-19"
  GI50: "> 100 µM (inactive)"
- compound: "Oc1ccccc1/C=N/c1ccc(-c2nc3ccccc3s2)cc1"
  testedOn: "SNB-19"
  GI50: "48.4 µM (inactive)"

The reported SNB-19 GI50 of CC(C)Oc1c(-c2c(OC(C)C)c(=O)c2=O)c(=O)c1=O is > 69 µM (inactive)

The reported SNB-19 GI50 of C[n+]1cn(-c2nc3ccccc3nc2[N-]S(=O)(=O)c2ccccc2)c2ccccc21 is > 100 µM (inactive)

The reported SNB-19 GI50 of CC1CCC2(CC1)NN=c1s/c(=C\c3ccc(O)cc3)c(=O)n1N2 (stereo not drawn) is > 100 µM (inactive)

The reported SNB-19 GI50 of O=c1n(C2CCCCC2)c(=C(Cl)Cl)c(=C(Cl)Cl)n1C1CCCCC1 is > 100 µM (inactive)

###

Test system: NCI-H23
Test: NCI tumour cell line growth inhibition, 48 h
Activity calls are given as the source filed them. Cut-off read from the data, not from the text of the source: active = GI50 up to about 1.1 µM and inactive = higher.
Assign a class; possible classes are active, inactive

- molecule: "CN(C)C(=O)OC(Cn1cncn1)c1ccc(Cl)cc1Cl (stereo not given)"
  categoryLabel: "inactive"
- molecule: "O=C1C=CC[C@H](/C=C/C[C@@H](O)C[C@H](O)/C=C/c2ccccc2)O1"
  categoryLabel: "inactive"

Task: Recorded test call requested for COc1ccccc1CNCc1nc2ccccc2[nH]1
Output: inactive

Task: Recorded test call requested for CC(=O)N/N=C1\CC(C)(C)C2CCC1C2 (stereo not given)
Output: inactive

Task: Recorded test call requested for O=P(O)(Cc1ccccc1)c1ccccc1-c1ccccc1
Output: inactive

Task: Recorded test call requested for O=C(/C=C/c1csc(-c2ccccc2)n1)NCc1ccc(C(=O)NCc2ccccc2)cc1
Output: inactive

Task: Recorded test call requested for COC(=O)C(Cc1ccc(OC)cc1O)NC(=O)OC(C)(C)C (stereo not given)
Output: inactive

Task: Recorded test call requested for C/C(CC(=O)Nc1cc(Cl)c(Cl)cc1Cl)=N\NC(N)=O
Output: inactive

###

Test system: A498
Test: NCI tumour cell line growth inhibition, 48 h
Active and inactive are the calls of the source. Rule as the data show it: active = GI50 up to about 1.1 µM and inactive = higher.
Assign a class; possible classes are true (1) = active, false (0) = inactive

Worked examples follow.
- molecule: "CC(C)Oc1c(-c2c(OC(C)C)c(=O)c2=O)c(=O)c1=O"
  testedOn: "A498"
  categoryLabel: "false (0)"
- molecule: "CC(C)(C)c1ccc(OCCOCCOc2ccc(C(C)(C)C)cc2S(N)(=O)=O)c(S(N)(=O)=O)c1"
  testedOn: "A498"
  categoryLabel: "false (0)"
- molecule: "CC(C)(C)c1ccc2c(c1)OCc1n[nH]c(n1)COc1cc(C(C)(C)C)ccc1OCCOCCO2"
  testedOn: "A498"
  categoryLabel: "false (0)"
- molecule: "Cc1ccc(S(=O)(=O)N(CCN)c2cc3c4c(c2)Oc2cccc5c2C4c2c(cccc2O3)O5)cc1"
  testedOn: "A498"
  categoryLabel: "false (0)"
- molecule: "CC(=O)OCc1nc(C#N)c(N)o1"
  testedOn: "A498"
  categoryLabel: "false (0)"
- molecule: "COc1ccc(Br)c2c1CC(C(=O)O)CC2 (stereo not drawn)"
  testedOn: "A498"
  categoryLabel: "false (0)"
- molecule: "CO[C@H]1C=CO[C@@]2(C)Oc3c(C)c(O)c4c(O)c(c(CN5CCN(C)CC5)c(O)c4c3C2=O)NC(=O)/C(C)=C\\C=C[C@H](C)[C@H](O)C(C)[C@@H](O)C(C)[C@H](OC(C)=O)[C@@H]1C (stereo partly drawn)"
  testedOn: "A498"
  categoryLabel: "false (0)"
- molecule: "Brc1ccc2c([C@H]3CN[C@@H](c4c[nH]c5cc(Br)ccc45)CN3)c[nH]c2c1"
  testedOn: "A498"
  categoryLabel: "false (0)"

Task: Recorded test call requested for CC(=O)OC1COC(N2C(=O)C(=O)c3c(C)cc(Cl)nc32)C(OC(C)=O)C1OC(C)=O (stereo not drawn)
Output: false (0)

###

System: OVCAR-5
Assay: NCI tumour cell line growth inhibition, 48 h
The source made the active and inactive calls. Rule as the data show it: active = GI50 up to about 1.1 µM and inactive = higher.
valueKind: GI50

- compound: "CC1CC(C)[C@H](O)C([C@H](O)CC2CC(=O)N(C)C(=O)C2)C1 (stereo not given in full)"
  GI50: "> 100 µM (inactive)"
- compound: "COC(=O)c1ccccc1CC1Cc2ccc3c(c2C1=O)CCC3 (stereo not given)"
  GI50: "> 100 µM (inactive)"
- compound: "Cc1cccc(/C=N/C23CC4CC(CC(C4)C2)C3)c1"
  GI50: "> 100 µM (inactive)"
- compound: "COc1ccc(C2CC(C)=Nc3c(O)nc(S)nc3N2)cc1 (stereo not given)"
  GI50: "23.4 µM (inactive)"
- compound: "Oc1ccc(N=C2CCC(=C(c3ccccc3)c3ccc(Nc4ccc(O)cc4)cc3)CC2)cc1"
  GI50: "> 100 µM (inactive)"

The reported OVCAR-5 GI50 of Cc1cc(C)nc(Nc2nc3cc([N+](=O)[O-])ccc3[nH]2)n1 is > 100 µM (inactive)

The reported OVCAR-5 GI50 of NC1N=Nc2ccccc21 (stereo not given) is > 100 µM (inactive)

The reported OVCAR-5 GI50 of Cn1c2c3ccc(Cl)cc3nc-2c(Cl)c2ccccc21 is 17.3 µM (inactive)

The reported OVCAR-5 GI50 of O=C(O)CNCP(=O)(O)O [GLYPHOSATE] is > 100 µM (inactive)

The reported OVCAR-5 GI50 of O=C(C1OC1c1ccc([N+](=O)[O-])cc1)C12CC3CC(CC(C3)C1)C2 (stereo not given) is 21 µM (inactive)
